All figures here come from ChEMBL document CHEMBL1157420.

# Measured on: Gonadotropin-releasing hormone receptor (Homo sapiens)
# Sequence (P30968 whole entry): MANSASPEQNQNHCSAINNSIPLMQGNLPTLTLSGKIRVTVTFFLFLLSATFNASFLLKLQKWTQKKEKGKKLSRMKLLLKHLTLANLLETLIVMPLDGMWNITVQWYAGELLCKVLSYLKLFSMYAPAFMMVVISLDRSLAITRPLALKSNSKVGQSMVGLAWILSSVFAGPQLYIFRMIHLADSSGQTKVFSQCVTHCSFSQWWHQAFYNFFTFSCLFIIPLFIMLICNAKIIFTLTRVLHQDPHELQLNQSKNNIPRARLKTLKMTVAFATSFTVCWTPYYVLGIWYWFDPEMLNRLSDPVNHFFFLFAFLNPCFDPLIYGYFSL
# Protocol: Displacement of [125I]-(D-Trp6)LHRH from human recombinant GnRH receptor
Metric: IC50 (nM)
Answer in nM, number only, no unit symbol.

Use the examples below as a reference point.
In: // returns reported IC50 for input CC(C)(C)c1ccc(-c2nc3c(N4CCN(Cc5ccc6[nH]c(=O)c(=O)[nH]c6c5)CC4)cccc3[nH]2)cc1
Out: 4.9

In: // returns reported IC50 for input CCc1ccc(-c2nc3c(N4CCN(CCOc5cccc6[nH]c(=S)[nH]c56)CC4)cccc3[nH]2)cc1
Out: 120

In: // returns reported IC50 for input CC(C)(C)c1ccc(-c2nc3c(N4CCN(CCOc5cccc6nc(C(F)(F)F)[nH]c56)CC4)cccc3[nH]2)cc1
Out: 50

In: // returns reported IC50 for input CCn1cc(CN2CCN(c3cccc4[nH]c(-c5ccc(C(C)(C)C)cc5)nc34)CC2)c(=O)[nH]c1=O
Out: 11

In: // returns reported IC50 for input Cc1ccc(-c2nc3c(N4CCN(CCOc5cccc6[nH]c(=S)[nH]c56)CC4)cccc3[nH]2)c(C)c1
Out: 1200

---
In: // returns reported IC50 for input FC(F)(F)c1nc2c(N3CCN(Cc4cccc5nc(C(F)(F)F)[nH]c45)CC3)cccc2[nH]1
Out: 9500

In: // returns reported IC50 for input FC(F)(F)C(F)(F)c1nc2c(N3CCN(CCOc4cccc5[nH]c(=S)[nH]c45)CC3)cccc2[nH]1
Out: 6300

In: // returns reported IC50 for input FC(F)(F)c1nc2c(N3CCN(CCCOc4cccc5[nH]c(=S)[nH]c45)CC3)cccc2[nH]1
Out: 3300

---

# Protocol: Half life in rat plasma at 1.0 mg/kg, iv
# Format: ADME, organism-based
# Parameters: dose 1 mg/kg, route intravenous
Recorded half-life, one value per entry.
Answer in h, number only, no unit symbol.

In: // returns reported half-life for input CC(C)(C)c1ccc(-c2nc3c(N4CCN(Cc5c[nH]c(=O)[nH]c5=O)CC4)cccc3[nH]2)cc1
Out: 3.5

Let us move to another entry and its half-life.
In: // returns reported half-life for input CCn1cc(CN2CCN(c3cccc4[nH]c(-c5ccc(C(C)(C)C)cc5)nc34)CC2)c(=O)[nH]c1=O
Out: 1.1

---

# Measured on: Gonadotropin-releasing hormone receptor (Homo sapiens) (UniProt P30968)
# Sequence (P30968 whole entry): as above
# Protocol: Displacement of [125I]-(D-Trp6)LHRH from human recombinant GnRH receptor at 10 uM
Metric: Activity
State the result as a value with its unit after it.

Use the examples below as a reference point.
In: // returns reported Activity for input Cn1c(C(F)(F)F)nc2c(N3CCN(CCOc4cccc5[nH]c(=S)[nH]c45)CC3)cccc21
Out: 8%

In: // returns reported Activity for input O=c1[nH]c2cccc(N3CCN(CCOc4cccc5[nH]c(=S)[nH]c45)CC3)c2[nH]c1=O
Out: 9%

In: // returns reported Activity for input FC(F)(F)c1nc2c(N3CCN(CCCc4cccc5nc(C(F)(F)F)[nH]c45)CC3)cccc2[nH]1
Out: 42%

In: // returns reported Activity for input Cc1cccc(-c2nc3c(N4CCN(CCOc5cccc6[nH]c(=S)[nH]c56)CC4)cccc3[nH]2)c1
Out: 47%

In: // returns reported Activity for input FC(F)(F)c1nc2cc(N3CCN(CCOc4cccc5[nH]c(=S)[nH]c45)CC3)ccc2[nH]1
Out: 11%

---
In: // returns reported Activity for input CC(C)(C)c1ccc(-c2nc3c(N4CCN(Cc5ccc6ccccc6c5)CC4)cccc3[nH]2)cc1
Out: 7%

In: // returns reported Activity for input Cn1c(C(F)(F)F)nc2c(N3CCN(CCOc4cccc5[nH]c(C(F)(F)F)nc45)CC3)cccc21
Out: 5%

In: // returns reported Activity for input Cc1nc2c(N3CCN(CCOc4cccc5[nH]c(=S)[nH]c45)CC3)cccc2[nH]1
Out: 10%
